Experiment: Confirmation Concentration-Response Assay for lipid storage modulators; also: nearly all actives have a fitted effect of over 80% in size
Settings: Drosophila S3 cells, lipid droplet BODIPY/CellTracker ratio, 18-24 h; series mostly up to 46.1 µM
Inconclusive results are not listed. Calls of active or inactive are those of the source. Calls follow the shape of the dose curve; as a rule, active = well fitted inhibition curve with a large enough effect; inconclusive = small, poorly fitted or top-dose-only effect, or effect the other way, or another doubt; inactive = no such curve, though single readings can be large or run the other way.
Outcome (select one): 1.0 (active), 0.0 (inactive)

Input line: What is the recorded call for this compound in the test? `CCc1ccc(CN(C)C(=O)c2ccc3c(=O)n4c(nc3c2)CCC4)cc1`
Output line: 0.0

Input line: What is the recorded call for this compound in the test? `CCOc1ccc(CCNC(=O)Cn2cccc2C(=O)c2ccccc2)cc1OCC`
Output line: 1.0

Input line: What is the recorded call for this compound in the test? `O=C(COC(=O)c1ccc(CO)cc1)NCc1cccs1`
Output line: 0.0

Input line: What is the recorded call for this compound in the test? `COc1ccc(CCNC(=O)c2cc3sc(Cl)cc3n2C)cc1OC`
Output line: 0.0

Input line: What is the recorded call for this compound in the test? `Cc1cccc(NC(=O)CNC(=O)C23CC4CC(CC(Cl)(C4)C2)C3)n1`
Output line: 1.0

Input line: What is the recorded call for this compound in the test? `COC(=O)c1ccccc1NC(=O)c1ccc(F)cc1F`
Output line: 1.0

Input line: What is the recorded call for this compound in the test? COC(=O)c1ccc(C(=O)NC2CCCc3c2cnn3-c2ccccc2F)nc1 (configuration not stated)
Output line: 1.0

Input line: What is the recorded call for this compound in the test? `N#Cc1ccsc1NC(=O)CN1CCN(S(=O)(=O)c2cc(Cl)ccc2Cl)CC1`
Output line: 1.0

Input line: What is the recorded call for this compound in the test? `CCOc1ccc(CCNC(=O)COC(=O)c2cccs2)cc1OCC`
Output line: 1.0

Input line: What is the recorded call for this compound in the test? `N#Cc1ccsc1NC(=O)CN1CCN(S(=O)(=O)c2ccccc2C(F)(F)F)CC1`
Output line: 1.0

Input line: What is the recorded call for this compound in the test? `O=C1c2ccccc2C(=O)c2c(Nc3ccc(CCO)cc3)ccc(O)c21`
Output line: 1.0

Input line: What is the recorded call for this compound in the test? `COc1ccc(CCNC(=O)CCC(=O)c2cccs2)cc1OC`
Output line: 0.0

Input line: What is the recorded call for this compound in the test? `CCOC(=O)c1cc2c(ccn2-c2ccc(F)cc2)n1CC(=O)N(CC)CC`
Output line: 1.0

Input line: What is the recorded call for this compound in the test? Cc1sc2ncnc(NCC3COc4ccccc4O3)c2c1C (configuration not stated)
Output line: 1.0

Input line: What is the recorded call for this compound in the test? `CCOc1ccc(CCNC(=O)COC(=O)c2ccc(OC(C)C)cc2)cc1OCC`
Output line: 1.0

Input line: What is the recorded call for this compound in the test? `CCOc1ccc(CCNC(=O)c2cc3sccc3n2CC)cc1OCC`
Output line: 1.0

Input line: What is the recorded call for this compound in the test? `CCOc1ccc(CCNC(=O)COC(=O)c2ccc(S(C)(=O)=O)cc2)cc1OCC`
Output line: 0.0

Input line: What is the recorded call for this compound in the test? `COc1ccc(/C=C\C(=O)NCc2ccc3[nH]c(C)cc3c2)cc1OC`
Output line: 1.0

Input line: What is the recorded call for this compound in the test? `CCc1cccc2cc3c(N)c(C(=O)Nc4ccc(S(=O)(=O)N5CCCC5)cc4)sc3nc12`
Output line: 1.0

Input line: What is the recorded call for this compound in the test? CC(Oc1ccc2oc3ccccc3c2c1)C(=O)NC12CC3CC(CC(C3)C1)C2 (configuration not stated)
Output line: 1.0

Input line: What is the recorded call for this compound in the test? `COc1ccc(CCNC(=O)Cn2nnc(-c3ccc(N(C)C)cc3)n2)cc1OC`
Output line: 1.0

Input line: What is the recorded call for this compound in the test? `COc1ccc(CCNC(=O)Cn2cccc2C(=O)c2ccccc2C)cc1OC`
Output line: 0.0
